Experiment: Cytotoxicity against human A549 cells incubated for 48 hrs by CellTiter-Glo Luminescent Cell Viability Assay
Type: toxicity, cell-based
TEST READOUT: CC50 at 48 h (µM)
Numbers only, in µM.

These solved cases illustrate the format of a correct answer.
Oc1ccc(-c2nc3ncc(Br)cn3c2NC2CCCCCC2)cc1 = 45
CC12CC3CC(C)(C1)CC(Nc1c(-c4ccc(F)c(F)c4)nc4ncccn14)(C3)C2 = 15.5
Cc1cc(C)n2c(NC3CCCCC3)c(-c3ccccc3)nc2n1 = 59

In the following, a different compound is considered.
Prompt: Item under review: COCOc1cccc(-c2nc3ncc(Cl)cn3c2NC2CCCCC2)c1F . Reported CC50 at 48 h?
Response: 51
